# REPORTED_CONDITIONS: bacteroides fragilis, 12 h, 2 µM
# Description: The drug is tested on Bacteroides fragilis strain: NCTC 9343 for biotransformation. The drug concentrations were measured before and after a 12-h incubation by liquid-chromatography-coupled mass spectrometry (LC–MS)
ATTRIBUTE_MEASURED: Bacterial Biotransformation

Sample answers from the record:
{"columns": ["MOLECULE", "ATTRIBUTE_MEASURED", "RESULT"],
 "data": [
  ["C[C@@H]1CC[C@H]2[C@@H](C)C(=O)O[C@@H]3O[C@@]4(C)CC[C@@H]1[C@]32OO4", "Bacterial Biotransformation", "Compound metabolized"],
  ["CC(C)NCC(O)COc1ccc(CC(N)=O)cc1 (stereo not drawn)", "Bacterial Biotransformation", "Compound NOT metabolized"],
  ["CN(C/C=C/C#CC(C)(C)C)Cc1cccc2ccccc12", "Bacterial Biotransformation", "Compound NOT metabolized"],
  ["N#Cc1ccc2c(c1)N(CCCN1CCC(O)CC1)c1ccccc1S2", "Bacterial Biotransformation", "Compound NOT metabolized"]
]}

# return Bacterial Biotransformation for each item in the list
1. CN(C)CCC=C1c2ccccc2C=Cc2ccccc21
2. CC(C)NCC(O)COc1ccc(CCOCC2CC2)cc1 (stereo not drawn)

Reply:
1: Compound NOT metabolized; 2: Compound NOT metabolized

# return Bacterial Biotransformation for each item in the list
1. Clc1cccc(Cl)c1N=C1NCCN1
2. CC(=O)O[C@]1(C(C)=O)CC[C@H]2[C@@H]3C=C(C)C4=CC(=O)CC[C@]4(C)[C@H]3CC[C@@]21C [MEGESTROL ACETATE]
3. C[C@]12C=CC(=O)C=C1CC[C@@H]1[C@@H]2C(=O)C[C@@]2(C)[C@H]1CC[C@]2(O)C(=O)CO

Reply:
1. Compound metabolized
2. Compound metabolized
3. Compound NOT metabolized

---

# REPORTED_CONDITIONS: enterocloster bolteae, 12 h, 2 µM
# Description: The drug is tested on Clostridium bolteae strain: ATCCBAA-613 for biotransformation. The drug concentrations were measured before and after a 12-h incubation by liquid-chromatography-coupled mass spectrometry (LC–MS)
ATTRIBUTE_MEASURED: Bacterial Biotransformation

{"columns": ["MOLECULE", "RESULT"],
 "data": [
  ["OC(CCN1CCCCC1)(c1ccccc1)C1CC2C=CC1C2 (centres undefined)", "Compound NOT metabolized"],
  ["COc1cc(C(=O)NCc2ccc(OCCN(C)C)cc2)cc(OC)c1OC [TRIMETHOBENZAMIDE]", "Compound NOT metabolized"],
  ["CNC(=C[N+](=O)[O-])NCCSCc1ccc(CN(C)C)o1", "Compound NOT metabolized"],
  ["CC#C[C@]1(O)CC[C@H]2[C@@H]3CCC4=CC(=O)CCC4=C3[C@@H](c3ccc(N(C)C)cc3)C[C@@]21C", "Compound NOT metabolized"]
]}

---

# REPORTED_CONDITIONS: parabacteroides johnsonii, 12 h, 2 µM
# Description: The drug is tested on Parabacteroides johnsonii strain: DSM18315 for biotransformation. The drug concentrations were measured before and after a 12-h incubation by liquid-chromatography-coupled mass spectrometry (LC–MS)
Non-standard residues stand in square brackets, D forms with d. Residues, ends and D or L forms follow the SMILES beside them. pGlu = O=C1CC[C@@H](C(=O)O)N1; Thz = O=C(O)[C@@H]1CSCN1
ATTRIBUTE_MEASURED: Bacterial Biotransformation

Sample answers from the record:
{"columns": ["COMPOUND", "Bacterial Biotransformation"],
 "data": [
  ["CC(C)N(CCC(C(N)=O)(c1ccccc1)c1ccccn1)C(C)C.O=P(O)(O)O (configuration not stated) [DISOPYRAMIDE PHOSPHATE]", "Compound NOT metabolized"],
  ["NC12CC3CC(CC(C3)C1)C2", "Compound NOT metabolized"],
  ["Cc1cc2c(cc1S(N)(=O)=O)S(=O)(=O)CCC2", "Compound NOT metabolized"],
  ["CC(=O)O[C@H]1C(=O)[C@@]2(C)[C@H]([C@H](OC(=O)c3ccccc3)[C@]3(O)C[C@H](OC(=O)[C@H](O)[C@@H](NC(=O)c4ccccc4)c4ccccc4)C(C)=C1C3(C)C)[C@]1(OC(C)=O)CO[C@@H]1C[C@@H]2O", "Compound NOT metabolized"]
]}

# return Bacterial Biotransformation for each item in the list
1. CN(C)CCC=C1c2ccccc2COc2ccccc21 [DOXEPIN]
2. CNCCC(Oc1ccc(C(F)(F)F)cc1)c1ccccc1 (configuration not stated)
3. CCOC(=O)[C@H](CCc1ccccc1)N[C@@H](C)C(=O)N1[C@H](C(=O)O)C[C@@H]2CCC[C@@H]21
4. CCc1cccc2c3c([nH]c12)C(CC)(CC(=O)O)OCC3 (configuration not stated)
5. Cc1nc2n(c(=O)c1CCN1CCC(c3noc4cc(F)ccc34)CC1)CCCC2
6. CCOC(=O)[C@H](CCc1ccccc1)N[C@H]1CCc2ccccc2N(CC(=O)O)C1=O

Reply:
["Compound NOT metabolized", "Compound metabolized", "Compound NOT metabolized", "Compound NOT metabolized", "Compound NOT metabolized", "Compound metabolized"]

# return Bacterial Biotransformation for each item in the list
1. CN1CCC[C@@H]1CCO[C@](C)(c1ccccc1)c1ccc(Cl)cc1.O=C(O)/C=C/C(=O)O [CLEMASTINE FUMARATE]
2. Cc1cc2c(s1)Nc1ccccc1N=C2N1CCN(C)CC1
3. O=C(O)CCc1nc(-c2ccccc2)c(-c2ccccc2)o1
4. CC(C)c1nc(CN(C)C(=O)N[C@H](C(=O)N[C@@H](Cc2ccccc2)C[C@H](O)[C@H](Cc2ccccc2)NC(=O)OCc2cncs2)C(C)C)cs1
5. CC(C)c1c(CN(C)C(C)Cc2ccccc2)n(C)n(-c2ccccc2)c1=O (configuration not stated)
6. O=c1[nH]c2ccccc2n1C1CCN(CCCC(c2ccc(F)cc2)c2ccc(F)cc2)CC1 [PIMOZIDE]

Reply:
1. Compound NOT metabolized
2. Compound NOT metabolized
3. Compound metabolized
4. Compound NOT metabolized
5. Compound metabolized
6. Compound NOT metabolized

# return Bacterial Biotransformation for each item in the list
1. CN(C/C=C/C#CC(C)(C)C)Cc1cccc2ccccc12
2. CS(=O)(=O)O.O.O.O.O=C1Cc2cc(CCN3CCN(c4nsc5ccccc45)CC3)c(Cl)cc2N1 [ZIPRASIDONE MESYLATE]
3. COC(=O)[C@H](c1ccccc1Cl)N1CCc2sccc2C1.O=S(=O)(O)O [CLOPIDOGREL BISULFATE]
4. CCC(=O)NCC[C@@H]1CCc2ccc3c(c21)CCO3
5. CCN(CC)CCNC(=O)c1cc(Cl)c(N)cc1OC [METOCLOPRAMIDE]
6. CN1CCN(C(=O)O[C@H]2c3nccnc3C(=O)N2c2ccc(Cl)cn2)CC1

Reply:
1. Compound NOT metabolized
2. Compound NOT metabolized
3. Compound metabolized
4. Compound NOT metabolized
5. Compound NOT metabolized
6. Compound metabolized

# return Bacterial Biotransformation for each item in the list
1. COC(=O)[C@H]1[C@H]2C[C@@H]3c4[nH]c5cc(OC)ccc5c4CCN3C[C@H]2C[C@@H](OC(=O)c2cc(OC)c(OC)c(OC)c2)[C@@H]1OC
2. O=C1CC[C@@H](C(=O)N2CSC[C@H]2C(=O)O)N1 [PIDOTIMOD] ([pGlu]-[Thz]-OH)

Reply:
Compound NOT metabolized
Compound metabolized

---

# PROTOCOL_DETAILS: The drug is tested on Bacteroides fragilis strain: HMW610 for biotransformation. The drug concentrations were measured before and after a 12-h incubation by liquid-chromatography-coupled mass spectrometry (LC–MS)
# REPORTED_CONDITIONS: 2 µM
ATTRIBUTE_MEASURED: Bacterial Biotransformation

Sample answers from the record:
{"columns": ["MOLECULE", "Bacterial Biotransformation"],
 "data": [
  ["CCN(CC)C(=O)C1(c2ccccc2)CC1CN (configuration not stated)", "Compound NOT metabolized"],
  ["CCN(CC)CCNC(=O)c1cc(Cl)c(N)cc1OC [METOCLOPRAMIDE]", "Compound NOT metabolized"],
  ["COc1ccc(CCN(C)CCCC(C#N)(c2ccc(OC)c(OC)c2)C(C)C)cc1OC (configuration not stated)", "Compound NOT metabolized"],
  ["O=C1CC2(CCCC2)CC(=O)N1CCCCN1CCN(c2ncccn2)CC1", "Compound NOT metabolized"],
  ["COC(=O)[C@H]1[C@H]2C[C@@H]3c4[nH]c5cc(OC)ccc5c4CCN3C[C@H]2C[C@@H](OC(=O)c2cc(OC)c(OC)c(OC)c2)[C@@H]1OC", "Compound NOT metabolized"],
  ["CC(=O)O[C@]1(C(C)=O)CC[C@H]2[C@@H]3C=C(Cl)C4=CC(=O)[C@@H]5C[C@@H]5[C@]4(C)[C@H]3CC[C@@]21C [CYPROTERONE ACETATE]", "Compound metabolized"],
  ["CN1CCC(=C2c3ccccc3CCc3cccnc32)CC1.O=C(O)/C=C\\C(=O)O.O=C(O)/C=C\\C(=O)O [AZATADINE MALEATE]", "Compound NOT metabolized"],
  ["CCCCC(=O)O[C@]1(C(=O)CO)[C@@H](C)C[C@H]2[C@@H]3CCC4=CC(=O)C=C[C@]4(C)[C@@]3(F)[C@@H](O)C[C@@]21C [BETAMETHASONE VALERATE]", "Compound metabolized"]
]}

# return Bacterial Biotransformation for each item in the list
1. CC(C(=O)O)c1ccc2c(c1)Cc1cccnc1O2 (configuration not stated)
2. COc1ccc2c(c1OC)C(=O)O[C@@H]2[C@H]1c2c(cc3c(c2OC)OCO3)CCN1C
3. Cc1nc(Nc2ncc(C(=O)Nc3c(C)cccc3Cl)s2)cc(N2CCN(CCO)CC2)n1.O
4. COc1ccc2[nH]c([S+]([O-])Cc3ncc(C)c(OC)c3C)nc2c1 (configuration not stated)
5. O=C(O)CCc1nc(-c2ccccc2)c(-c2ccccc2)o1

Reply:
["Compound metabolized", "Compound NOT metabolized", "Compound metabolized", "Compound metabolized", "Compound metabolized"]

# return Bacterial Biotransformation for each item in the list
1. CCC1(c2ccc(N)cc2)CCC(=O)NC1=O (configuration not stated) [AMINOGLUTETHIMIDE]
2. CNNCc1ccc(C(=O)NC(C)C)cc1
3. NC12CC3CC(CC(C3)C1)C2
4. COc1c2occc2cc2ccc(=O)oc12

Reply:
["Compound NOT metabolized", "Compound metabolized", "Compound NOT metabolized", "Compound metabolized"]
